# TEST TARGET: Macrophage migration inhibitory factor (Homo sapiens) (UniProt P14174)
# Sequence (P14174 whole entry): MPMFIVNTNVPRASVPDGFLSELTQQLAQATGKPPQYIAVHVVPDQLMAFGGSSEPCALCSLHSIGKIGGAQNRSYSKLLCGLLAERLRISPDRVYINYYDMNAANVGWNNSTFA
# METHOD NOTES: Inhibition of human purified MIF tautomerase activity at 10 uM after 30 mins
READOUT TYPE: inhibition (%)

Use these answered entries as a reference point.
{"columns": ["COMPOUND", "inhibition (%)"],
 "data": [
  ["CC(C)(C)C(=O)OC1CC(c2ccoc2)=NO1 (stereo unspecified)", 13],
  ["c1cc(C2=NOC(C3CCCCC3)C2)co1 (stereo unspecified)", 23]
]}

1. CC1(C(=O)O)CC(c2cn(-c3cccc(C(F)(F)F)c3)c3ccccc23)=NO1 (stereo unspecified)
2. O=C1CCCN1C1CC(c2cn(-c3cccc(C(F)(F)F)c3)c3ccccc23)=NO1 (stereo unspecified)
3. FC(F)(F)c1cccc(-n2cc(C3=NOC(Cn4ccc5ccccc54)C3)c3ccccc32)c1 (stereo unspecified)
4. OCCC1CC(c2ccoc2)=NO1 (stereo unspecified)
Q: Let's sort these by inhibition, smallest first. Go ahead? Answer format: the labels, in the requested order.
Result: 2, 1, 4, 3
(2: 1%, 1: 2%, 4: 3%, 3: 18%)

Recorded values, source ChEMBL document CHEMBL1681642.
